- Test system: 485368-065-R4-J2-PDC spheroids with HUVEC/MSC, viability
- Protocol details: Anticancer human tumor 485368-065-R4-J2-PDC patient-derived pancreatic carcinoma cell line growth inhibition [CLK]
- Assay context: second compound 3.16 µM; first compound 1 µM; hits give low values
Please respond with True when measured viability, T/C is strictly beneath 6%, and with False in all other cases.

Observe how each entry below is paired with its result.
>  <Compound>
CC1(C)CCC(CN2CCN(c3ccc(C(=O)NS(=O)(=O)c4ccc(NCC5CCOCC5)c([N+](=O)[O-])c4)c(Oc4cnc5[nH]ccc5c4)c3)CC2)=C(c2ccc(Cl)cc2)C1 + CN1CCN(c2cc(C(=O)Nc3cc4cc(-c5cnn(C)c5)ccc4cn3)ccn2)CC1

>  <Label class>
True

$$$$
>  <Compound>
CC(Nc1ccc2c(c1)OCCn1cc(N3C(=O)OCC3C(F)F)nc1-2)C(N)=O (configuration not stated) + CNC(=O)c1ccc(Nc2nc(OC3CCCC3)c3c(-c4ccc5nc(C)oc5c4)c[nH]c3n2)c(OC)c1

>  <Label class>
False

$$$$

## Input Problem: For the compound CCc1c2c(nc3ccc(O)cc13)-c1cc3c(c(=O)n1C2)COC(=O)[C@]3(O)CC + CNC(=O)c1ccc(Nc2nc(OC3CCCC3)c3c(-c4ccc5nc(C)oc5c4)c[nH]c3n2)c(OC)c1 , is viability, T/C under 6%?
## Output False

## Input Also CC1COCCN1c1cc(C2(S(C)(=N)=O)CC2)nc(-c2ccnc3[nH]ccc23)n1 (configuration not stated) + CN1CCN(c2cc(C(=O)Nc3cc4cc(-c5cnn(C)c5)ccc4cn3)ccn2)CC1 ?
## Output True

## Input Also CCN1CCN(Cc2ccc(Nc3ncc(F)c(-c4cc(F)c5nc(C)n(C(C)C)c5c4)n3)nc2)CC1 + CN1CCN(c2cc(C(=O)Nc3cc4cc(-c5cnn(C)c5)ccc4cn3)ccn2)CC1 ?
## Output False

## Input Also CC(=O)O[C@H]1C(=O)[C@@]2(C)[C@H]([C@H](OC(=O)c3ccccc3)[C@]3(O)C[C@H](OC(=O)[C@H](O)[C@@H](NC(=O)c4ccccc4)c4ccccc4)C(C)=C1C3(C)C)[C@]1(OC(C)=O)CO[C@@H]1C[C@@H]2O + CNC(=O)c1ccc(Nc2nc(OC3CCCC3)c3c(-c4ccc5nc(C)oc5c4)c[nH]c3n2)c(OC)c1 ?
## Output False

## Input Also Nc1ccn(C2OC(CO)C(O)C2(F)F)c(=O)n1 (configuration not stated) + CN1CCN(c2cc(C(=O)Nc3cc4cc(-c5cnn(C)c5)ccc4cn3)ccn2)CC1 ?
## Output True

----------
# maps each entry to its viability, T/C
- System: 485368-065-R4-J2-PDC spheroids with HUVEC/MSC, viability
- Protocol details: Anticancer human tumor 485368-065-R4-J2-PDC cell line growth inhibition [CLK];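 also: spheroids exposed to compounds for seven days; 100% = DMSO vehicle control wells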
- Assay context: second compound 0.0316 µM; first compound 1 µM; hits give low values
Expressed in %, but write only the number.

As a guide, the following entries are already answered.
>  <Molecule>
C=CC(=O)N1CCN(c2nc(=O)n(-c3c(C)ccnc3C(C)C)c3nc(-c4c(O)cccc4F)c(F)cc23)C(C)C1 (centres undefined) + CNC(=O)c1ccc(Nc2nc(OC3CCCC3)c3c(-c4ccc5nc(C)oc5c4)c[nH]c3n2)c(OC)c1

>  <Target under test>
485368-065-R4-J2-PDC spheroids with HUVEC/MSC, viability

>  <U>
%

>  <viability, T/C>
103

$$$$
>  <Molecule>
COc1cccc2c1C(=O)c1c(O)c3c(c(O)c1C2=O)CC(O)(C(=O)CO)CC3OC1CC(N)C(O)C(C)O1 (centres undefined) + CNC(=O)c1ccc(Nc2nc(OC3CCCC3)c3c(-c4ccc5nc(C)oc5c4)c[nH]c3n2)c(OC)c1

>  <Target under test>
485368-065-R4-J2-PDC spheroids with HUVEC/MSC, viability

>  <U>
%

>  <viability, T/C>
31.6

$$$$

## Input Returns the measured viability, T/C for the input molecule. Input: CC1COCCN1c1cc(C2(S(C)(=N)=O)CC2)nc(-c2ccnc3[nH]ccc23)n1 (centres undefined) + CNC(=O)c1ccc(Nc2nc(OC3CCCC3)c3c(-c4ccc5nc(C)oc5c4)c[nH]c3n2)c(OC)c1
## Output 101

## Input Also CC(Nc1ccc2c(c1)OCCn1cc(N3C(=O)OCC3C(F)F)nc1-2)C(N)=O (centres undefined) + CNC(=O)c1ccc(Nc2nc(OC3CCCC3)c3c(-c4ccc5nc(C)oc5c4)c[nH]c3n2)c(OC)c1 ?
## Output 97.2

----------
- Test system: 485368-065-R4-J2-PDC spheroids with HUVEC/MSC, viability
- Protocol details: Anticancer human tumor 485368-065-R4-J2-PDC cell line growth inhibition [CLK];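 also: spheroids exposed to compounds for seven days; 100% = DMSO vehicle control wells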
- Assay context: second compound 0.1 µM; first compound 0.316 µM; hits give low values
Measured property: viability, T/C (%)
Expressed in %, but write only the number.

>  <Compound>
C#Cc1c(F)ccc2cc(O)cc(-c3ncc4c(N5CC6CCC(C5)N6)nc(OCC56CCCN5CC(F)C6)nc4c3F)c12 (configuration not stated) + CNC(=O)c1ccc(Nc2nc(OC3CCCC3)c3c(-c4ccc5nc(C)oc5c4)c[nH]c3n2)c(OC)c1

>  <viability, T/C (%)>
108

$$$$
>  <Compound>
COC1C=CCC(C)C(C)S(=O)(=O)NC(=O)c2ccc3c(c2)N(CC2CCC21)CC1(CCCc2cc(Cl)ccc21)CO3 (configuration not stated) + CN1CCN(c2cc(C(=O)Nc3cc4cc(-c5cnn(C)c5)ccc4cn3)ccn2)CC1

>  <viability, T/C (%)>
107

$$$$
>  <Compound>
C=CC(=O)N1CCN(c2nc(=O)n(-c3c(C)ccnc3C(C)C)c3nc(-c4c(O)cccc4F)c(F)cc23)C(C)C1 (configuration not stated) + CNC(=O)c1ccc(Nc2nc(OC3CCCC3)c3c(-c4ccc5nc(C)oc5c4)c[nH]c3n2)c(OC)c1

>  <viability, T/C (%)>
99.8

$$$$
>  <Compound>
COC1C=CCC(C)C(C)S(=O)(=O)NC(=O)c2ccc3c(c2)N(CC2CCC21)CC1(CCCc2cc(Cl)ccc21)CO3 (configuration not stated) + CNC(=O)c1ccc(Nc2nc(OC3CCCC3)c3c(-c4ccc5nc(C)oc5c4)c[nH]c3n2)c(OC)c1

>  <viability, T/C (%)>
105

$$$$

## Input Lookup: viability, T/C / 485368-065-R4-J2-PDC spheroids with HUVEC/MSC, viability / O=C(c1cc(Cc2n[nH]c(=O)c3ccccc23)ccc1F)N1CCN(C(=O)C2CC2)CC1 + CNC(=O)c1ccc(Nc2nc(OC3CCCC3)c3c(-c4ccc5nc(C)oc5c4)c[nH]c3n2)c(OC)c1
## Output 104

## Input Also O=C(c1cc(Cc2n[nH]c(=O)c3ccccc23)ccc1F)N1CCN(C(=O)C2CC2)CC1 + CN1CCN(c2cc(C(=O)Nc3cc4cc(-c5cnn(C)c5)ccc4cn3)ccn2)CC1 ?
## Output 105

## Input Also CC(Nc1ccc2c(c1)OCCn1cc(N3C(=O)OCC3C(F)F)nc1-2)C(N)=O (configuration not stated) + CNC(=O)c1ccc(Nc2nc(OC3CCCC3)c3c(-c4ccc5nc(C)oc5c4)c[nH]c3n2)c(OC)c1 ?
## Output 102

## Input Also CCc1c2c(nc3ccc(O)cc13)-c1cc3c(c(=O)n1C2)COC(=O)[C@]3(O)CC + CN1CCN(c2cc(C(=O)Nc3cc4cc(-c5cnn(C)c5)ccc4cn3)ccn2)CC1 ?
## Output 10.2

## Input Also COc1ccc([C@@H](O)c2cc(-c3ncnc4cc(N5CCOCC5)ccc34)c(F)cc2Cl)nn1 + CN1CCN(c2cc(C(=O)Nc3cc4cc(-c5cnn(C)c5)ccc4cn3)ccn2)CC1 ?
## Output 113

## Input Also CCCS(=O)(=O)Nc1ccc(F)c(C(=O)c2c[nH]c3ncc(-c4ccc(Cl)cc4)cc23)c1F + CN1CCN(c2cc(C(=O)Nc3cc4cc(-c5cnn(C)c5)ccc4cn3)ccn2)CC1 ?
## Output 103

## Input Also COc1ccc([C@@H](O)c2cc(-c3ncnc4cc(N5CCOCC5)ccc34)c(F)cc2Cl)nn1 + CNC(=O)c1ccc(Nc2nc(OC3CCCC3)c3c(-c4ccc5nc(C)oc5c4)c[nH]c3n2)c(OC)c1 ?
## Output 95.1

## Input Also CCCS(=O)(=O)Nc1ccc(F)c(C(=O)c2c[nH]c3ncc(-c4ccc(Cl)cc4)cc23)c1F + CNC(=O)c1ccc(Nc2nc(OC3CCCC3)c3c(-c4ccc5nc(C)oc5c4)c[nH]c3n2)c(OC)c1 ?
## Output 95.9

## Input Also COc1c(OCCCN2CCOCC2)ccc2c3n(c(=NC(=O)c4cnc(N)nc4)nc12)CCN3 + CNC(=O)c1ccc(Nc2nc(OC3CCCC3)c3c(-c4ccc5nc(C)oc5c4)c[nH]c3n2)c(OC)c1 ?
## Output 48

## Input Also CC(=O)O[C@H]1C(=O)[C@@]2(C)[C@H]([C@H](OC(=O)c3ccccc3)[C@]3(O)C[C@H](OC(=O)[C@H](O)[C@@H](NC(=O)c4ccccc4)c4ccccc4)C(C)=C1C3(C)C)[C@]1(OC(C)=O)CO[C@@H]1C[C@@H]2O + CNC(=O)c1ccc(Nc2nc(OC3CCCC3)c3c(-c4ccc5nc(C)oc5c4)c[nH]c3n2)c(OC)c1 ?
## Output 60.4

## Input Also CC(CO)NC(=O)c1cc(-c2ccc(Cl)cc2)nn(-c2cnn(C)c2)c1=O (configuration not stated) + CN1CCN(c2cc(C(=O)Nc3cc4cc(-c5cnn(C)c5)ccc4cn3)ccn2)CC1 ?
## Output 108

## Input Also CC1(C)CCC(CN2CCN(c3ccc(C(=O)NS(=O)(=O)c4ccc(NCC5CCOCC5)c([N+](=O)[O-])c4)c(Oc4cnc5[nH]ccc5c4)c3)CC2)=C(c2ccc(Cl)cc2)C1 + CN1CCN(c2cc(C(=O)Nc3cc4cc(-c5cnn(C)c5)ccc4cn3)ccn2)CC1 ?
## Output 112

## Input Also C=C(F)C(=O)N1CCN(c2nc(OCC3CCCN3C)nc3c2CCN(c2cccc4cccc(Cl)c24)C3)CC1CC#N (configuration not stated) + CN1CCN(c2cc(C(=O)Nc3cc4cc(-c5cnn(C)c5)ccc4cn3)ccn2)CC1 ?
## Output 106

## Input Also C=CC(=O)N1CCN(c2nc(=O)n(-c3c(C)ccnc3C(C)C)c3nc(-c4c(O)cccc4F)c(F)cc23)C(C)C1 (configuration not stated) + CN1CCN(c2cc(C(=O)Nc3cc4cc(-c5cnn(C)c5)ccc4cn3)ccn2)CC1 ?
## Output 107

Measured values drawn from PubChem BioAssay AID2060617 for this set.
